EXPERIMENTAL_TARGET: TrkB (Homo sapiens, UniProt Q16620)
Sequence (Q16620 32-822): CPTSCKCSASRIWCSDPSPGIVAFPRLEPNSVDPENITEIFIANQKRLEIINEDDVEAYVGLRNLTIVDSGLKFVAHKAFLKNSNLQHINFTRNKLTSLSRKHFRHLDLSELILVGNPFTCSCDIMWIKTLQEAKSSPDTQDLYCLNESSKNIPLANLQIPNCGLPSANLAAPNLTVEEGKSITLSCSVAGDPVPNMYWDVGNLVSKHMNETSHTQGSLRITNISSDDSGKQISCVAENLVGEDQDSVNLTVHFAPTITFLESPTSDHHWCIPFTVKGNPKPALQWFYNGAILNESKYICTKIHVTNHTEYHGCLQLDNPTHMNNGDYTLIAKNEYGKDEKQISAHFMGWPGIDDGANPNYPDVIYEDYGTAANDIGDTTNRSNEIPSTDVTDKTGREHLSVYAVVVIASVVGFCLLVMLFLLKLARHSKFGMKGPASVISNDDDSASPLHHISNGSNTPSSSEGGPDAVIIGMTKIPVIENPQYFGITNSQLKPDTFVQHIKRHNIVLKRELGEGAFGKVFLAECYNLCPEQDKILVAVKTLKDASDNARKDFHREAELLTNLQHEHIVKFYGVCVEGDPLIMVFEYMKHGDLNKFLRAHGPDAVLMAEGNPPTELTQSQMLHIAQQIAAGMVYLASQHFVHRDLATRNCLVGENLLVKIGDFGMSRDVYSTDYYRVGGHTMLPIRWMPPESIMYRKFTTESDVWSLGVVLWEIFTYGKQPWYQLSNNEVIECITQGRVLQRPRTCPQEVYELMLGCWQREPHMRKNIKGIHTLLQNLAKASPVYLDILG
PROPERTY_LABEL: IC50

| MOLECULE | PROPERTY_LABEL | OBS_VALUE |
| --- | --- | --- |
| CNc1cc(O)c2c(c1)/C=C/C[C@H](O)[C@H](O)C(=O)/C=C\[C@@H](C)[C@H](C)OC2=O [Compound 091] | IC50 | < 214 nM |

###

EXPERIMENTAL_TARGET: Flt3 (Homo sapiens)
Sequence (P36888 27-993): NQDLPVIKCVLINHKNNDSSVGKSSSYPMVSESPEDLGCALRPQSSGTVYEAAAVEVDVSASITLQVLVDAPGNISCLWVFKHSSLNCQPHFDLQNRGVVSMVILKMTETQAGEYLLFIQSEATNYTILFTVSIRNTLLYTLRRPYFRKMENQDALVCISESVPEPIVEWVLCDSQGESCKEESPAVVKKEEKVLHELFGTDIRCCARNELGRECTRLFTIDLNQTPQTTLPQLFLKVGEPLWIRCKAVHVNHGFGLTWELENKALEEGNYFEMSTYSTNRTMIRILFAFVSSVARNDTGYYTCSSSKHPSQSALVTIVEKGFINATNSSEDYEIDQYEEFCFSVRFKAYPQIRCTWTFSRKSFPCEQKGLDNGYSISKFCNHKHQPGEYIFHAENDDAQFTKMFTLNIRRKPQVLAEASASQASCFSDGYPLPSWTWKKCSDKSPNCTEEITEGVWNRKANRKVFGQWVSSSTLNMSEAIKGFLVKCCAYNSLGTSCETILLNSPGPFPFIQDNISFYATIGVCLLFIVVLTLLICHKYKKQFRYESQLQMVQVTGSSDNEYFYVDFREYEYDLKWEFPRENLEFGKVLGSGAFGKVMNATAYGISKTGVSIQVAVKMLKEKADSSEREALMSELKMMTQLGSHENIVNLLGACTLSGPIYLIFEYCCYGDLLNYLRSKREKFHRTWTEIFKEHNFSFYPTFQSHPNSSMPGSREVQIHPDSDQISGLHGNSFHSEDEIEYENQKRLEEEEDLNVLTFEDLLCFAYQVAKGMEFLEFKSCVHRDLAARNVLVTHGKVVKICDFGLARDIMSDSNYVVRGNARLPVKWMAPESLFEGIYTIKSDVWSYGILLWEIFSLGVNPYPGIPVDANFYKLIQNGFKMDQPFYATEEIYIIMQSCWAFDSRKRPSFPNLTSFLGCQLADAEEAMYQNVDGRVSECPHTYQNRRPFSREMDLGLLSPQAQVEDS
pIC50: −log10 of the molar value.

| COMPOUND | pIC50 |
| --- | --- |
| CNc1cc(O)c2c(c1)/C=C/C[C@H](O)[C@H](O)C(=O)/C=C\[C@@H](C)[C@H](C)OC2=O [Compound 091] | > 6.67 |
